# Tested on: PHBPU
# method_notes: Post-emergence herbicidal action against PHBPU
# Assay type: in vivo, Pharbitis purpurea
# setup_conditions: application rate 80 g/ha, rated visually about 3 weeks after treatment
quantity_name: Herbicidal action against [%] PHBPU (%)
Give the value, in units of %, as a plain number.

The cases that follow already have their Herbicidal action against [%] PHBPU on record.
compound | Herbicidal action against [%] PHBPU (%)
COC(=O)C1C=CC(NC(=O)C2(C)CC(c3cc(F)cc(C#N)c3)=NO2)C1 (mixture of isomers) | 90
O=C(O)C1C=CC(NC(=O)C2(C3CC3)CC(c3cc(F)cc(F)c3)=NO2)C1 (stereo not shown) | 90
COC(=O)[C@@H]1C=C[C@H](NC(=O)C2(C(F)(F)F)CC(c3cc(F)cc(C#N)c3)=NO2)C1 (single isomer, unassigned) [Example I-097] | 80
C=CC1(C(=O)N[C@H]2CC=C(C(=O)OC)C2)CC(c2cc(F)cc(F)c2)=NO1 (stereo partly shown) | 80
C=CC1(C(=O)NC2C=CC(C(=O)NC(C)(C)C(F)(F)F)C2)CC(c2cc(F)cc(F)c2)=NO1 (single isomer, unassigned) | 80
C=CC1(C(=O)N[C@H]2C=C[C@H](C(=O)NC(C)(C)C#N)C2)CC(c2cc(F)cc(F)c2)=NO1 (stereo partly shown) | 90

Supply reported Herbicidal action against [%] PHBPU belonging to this compound: CC1(C(=O)NC2C=CC(C(=O)OCCCl)C2)CC(c2cc(F)cc(C#N)c2)=NO1 (mixture of isomers) 90

Supply reported Herbicidal action against [%] PHBPU belonging to this compound: C=CC1(C(=O)NC2C=CC(C(=O)OCC)C2)CC(c2cc(F)cc(F)c2)=NO1 (stereo not shown) 80

Supply reported Herbicidal action against [%] PHBPU belonging to this compound: CCOC(=O)C1C=CC(NC(=O)C2(C)CC(c3cc(F)cc(F)c3)=NO2)C1 (mixture of isomers) 80

====

# System: STEME
# method_notes: Post-emergence herbicidal action against STEME
# Assay type: in vivo, Stellaria media
# setup_conditions: application rate 80 g/ha, rated visually about 3 weeks after treatment
quantity_name: Herbicidal action against [%] STEME (%)
Give the value, in units of %, as a plain number.

The cases that follow already have their Herbicidal action against [%] STEME on record.
compound | system | Herbicidal action against [%] STEME / %
CONC(=O)C1=CCC(NC(=O)C2(C)CC(c3cccc(F)c3)=NO2)C1 (mixture of isomers) | STEME | 80
COC(=O)[C@@H]1C=C[C@H](NC(=O)C2(C(F)(F)F)CC(c3cc(F)cc(C#N)c3)=NO2)C1 (single isomer, unassigned) [Example I-098] | STEME | 90
CCOC(=O)C1C=CC(NC(=O)C2(C(F)(F)F)CC(c3cccc(C#N)c3)=NO2)C1 (mixture of isomers) | STEME | 80
C=CC1(C(=O)NC2C=CC(C(=O)NS(=O)(=O)CC(=O)OC)C2)CC(c2cc(F)cc(F)c2)=NO1 (mixture of isomers) | STEME | 80
C=CC1(C(=O)NC2C=CC(C(=O)N3CCCO3)C2)CC(c2cc(F)cc(F)c2)=NO1 (stereo not shown) [II-27] | STEME | 90

Supply reported Herbicidal action against [%] STEME belonging to this compound: CC1(C(=O)NC2C=CC(C(=O)OCCCl)C2)CC(c2cc(F)cc(C#N)c2)=NO1 (mixture of isomers) 90

Supply reported Herbicidal action against [%] STEME belonging to this compound: N#Cc1cc(F)cc(C2=NOC(C(=O)N[C@H]3C=C[C@@H](C(=O)OCC(F)(F)F)C3)(C(F)(F)F)C2)c1 (stereo partly shown) 90

Supply reported Herbicidal action against [%] STEME belonging to this compound: C=CC1(C(=O)NC2C=CC(C(=O)OC(C)C)C2)CC(c2cc(F)cc(F)c2)=NO1 (mixture of isomers) 90

Supply reported Herbicidal action against [%] STEME belonging to this compound: C=CC1(C(=O)N[C@H]2CC=C(C(=O)OC)C2)CC(c2cc(F)cc(F)c2)=NO1 (stereo partly shown) 90
